- Tested on: gene editing with dCas9
- methodNotes: Screen of 322 new SSAP proteins, gene editing activity with dCas9 (Table 5)
- Assay type: cell-based
- testSettings: normalized
Tick true (1) if dCas9 with SSAP activity (normalized) is -0.4 or greater. Tick false (0) if dCas9 with SSAP activity (normalized) is less than -0.4.

The examples below pair each entry with its known result.
- molecule: "SSAP_159: SEQ ID NO: 328; Clostridium hathewayi CAG: 224 (protein, listed as Clostridium hathewayi) ANDIRGELARRASGTETQAVKLTKNMSIPDMIKALEPEIKRALPTILTPERFTRIALSAINNTPKLAECSPMSFIAALMNAAQLGLEPNTPLGQAFLIPYKVKGSLECQFQIGYRGMIDLAYRNERVQSIEAHTVYENDVFEYELGLNPRLVHIPTMEEPGDPIAFYGIFRLDNGGFRFEVMNKNAIDAYAARYSKAYDSASSPWKNNYESMACKTVLKQLLKYSPMKSEFQKAVSMDESVKTELSVDMSEVQNVNLIEETQEDAA"
  className: "true (1)"
- molecule: "SSAP_296: SEQ ID NO: 465; Peptostreptococcaceae bacterium VA2 (protein, Peptostreptococcaceae bacterium VA2) QPFLVQRYPHLDVVLNDQVHVLKSFFFQNHIILYLYKYIECLQIFHKPLLKGDRGKVIGYYAVYHLEPNGYNFVFMTYDEVKNHGKKYSKNFEGGIWEKEFDSMAKKTVIKKLLKYAPLSIEMQKAVTFDESVKGSIDNDMLLVESIEDVEEIQLDTNI"
  className: "false (0)"
- molecule: "SSAP_277: SEQ ID NO: 446; Nocardia terpenica (protein, listed as Nocardia terpenica) SSIAAAAESAEVTPASIINKYRDDIATVLPPKLRERIDRWIRLAIGAVNSNPELISRVRADQGASMMQALMKCAALGHEPGSGLFHLVPKGSRIEGWEDYKGILQRIDRSGVYARTVIGVVYANDEYSYDQNVDERPRHVRATGDRGEPISSYAYAVYPSGAITTVAEATPEQIASSKSKARGADNAASPWRAPGAPMHRKVAVRLLEKHVATSAEDRREPISRSAANDVVIDATADYYQEP"
  className: "false (0)"
- molecule: "SSAP_153: SEQ ID NO: 322; Staphylococcus intermedius (protein, listed as Staphylococcus intermedius) ANANSFKEQVSKNEVQETNNEKPKGPRQQVSDLLERMAPEIQKALPSHMSAERMARIAMTAISSNPQLLECNPRSLIGALLQASQIGLEPNTALGQAYLIPYYNHKKKEFEAQLQLSYLGLIELATRTGQYKAIYAHEVYKEDEFYYEYGLHKNLVHKPVDDPNGEPVGYYAVYHLQNGGFDFAYWTKNKIELHAGNYSKAVQKGWNSPWKTDFNAMAKKTVLKDLLKYAPKSIEISQAVGSDSKVTEINKQGEIIDITEYGQEALEG"
  className: "true (1)"
- molecule: "SSAP_161: SEQ ID NO: 330; Solobacterium moorei (protein, listed as Solobacterium moorei) TEIKAAKAPATVAKAGVSTQNKTIKDYITIMKPEIEKALPSTITPERFTRITLSAVSNNPKLQACSPSTFLSAMMQSAQLGLEPNTPLGQAYLIPYGNSCQFQLGYKGLLQLAYNSGQIKTIRTETVYENDEFKYELGLHSDLVHVPAMSNRGNPTAYYAVIEYTNGGYGFEVMSHDDVLEHAKKFSKTFNNGPWQSDFESMAKKTVLKQALKYAPLSTELVSKINTDETVKSSISDHMEEVKNDIDLSQIIDAETGEIHE"
  className: "true (1)"
- molecule: "SSAP_174: SEQ ID NO: 343; Hespellia stercorisuis (protein, listed as Hespellia stercorisuis) ADIKEELAKKVAEGTEDKKKLTKSMSIADLIKAMEPEIKKALPEVITPERFTRMALSALNTTPKLKECTQTSFLTALMNAAQLGLEPNTPLGQAYLIPYKNKGNLECQFQIGYKGLIDLSYRNRQMQIIQAQAVYENDEFEYELGLNPVLVHRPALQNRGAVKLFYGIFKLTNGGFGFEVMSKADMDAYAKEYSKAFDSSFSPWKSNYIGMAKKTVIKQAIKYAPLKTDFRKALSTDETIKTEFCEDMSEVQCKDIWDTEYKERSA"
  className: "false (0)"

Lookup: Kindly determine if dCas9 with SSAP activity (normalized) recorded for SSAP_122: SEQ ID NO: 291; Clostridium transplantifaecale (protein, Clostridium transplantifaecale) TDVKEELARKAGNTGKQEIRLNKNMSIPDMVKVLEPEIKRALPSVLTPERFTRMALSAINNTPKLAECSPMSFIAALMNAAQLGLEPNTPLGQAYLIPYKNKNQLECQFQIGYKGYIDLAYRTGQVQMIQAQAVHEFDYFEYEYGLTPKLVHRPGEGERGEITYFYGLFKMINGGFGFEVMNRAAMDAFAKQYSQSINSKYSPWNSQYEEMAKKTIIKKALKYGPVKSDFQKAISMDESIKTELSIDMSEVRNEDLIDGEFEEAA is above or exactly -0.4.
Found: true (1)

Lookup: Item SSAP_94: SEQ ID NO: 263; Providencia alcalifaciens (protein, listed as Providencia alcalifaciens) STPPLAKSDLQKTQGTEVKIKTNEQKLVEFINQPGMKAQLAAALPKHITSDRMIRIVSTEIRKTPSLANCDIQSFIGAVVQCSQLGLEPGNALGHAYLLPFGNGKSDNGQQNVQLIIGYRGMIDLARRSGQIISISARTVRQGDNFHFEYGLNENLTHIPEGNEDSPITHVYAVARLKDGGVQFEVMTYNQIEKVRNLSKAGKNGPWVTHWEEMAKKTVIRRLFKYLPVSIEMQKAVILDEKAEANIEQEHSAIFEAEFEEVDSNGN with dCas9 with SSAP activity (normalized) of -0.4 or above?
Found: false (0)
